assay-remarks: inhibitors of the yeast RAM network, pilot screen, dse1pr::URA3 reporter, 5-FOA selection (AID 869);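 note: 0% = DMSO wells with no growth and 100% = 10 µM 1-NA-PP1 with full growth; RAM network block rescues cells from 5-FOA so hits raise OD615 growth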
setup-conditions: S. cerevisiae dse1pr::URA3 5-FOA growth, OD615, 2 d; at 10 µM; stronger effect = higher value; strain carries analog-sensitive mutant Cbk1 kinase
measured-parameter: inhibition (%)
Give your result in % as a bare value.

Before answering, review these 2 worked examples.
query: Which measured inhibition value corresponds to COC(=O)C1C(C(C)C)N(c2ccccc2)OC1(C)O (stereo not drawn) ?
result: 0.93

query: Could you tell me which inhibition is on file for `COc1ccc(-n2c(SCC(=O)Nc3cc(C)on3)nc3c(c2=O)SCC3)cc1` ?
result: 4.46

---
query: Need inhibition, item CCOC1=NC(C(=O)O)c2ccccc2/C(=C(/C)Cl)N1 (stereo not drawn)
result: 0.25

query: Give its inhibition value. Item: `NC(=O)C1(N2CCCCC2)CCN(S(=O)(=O)c2cc(Cl)ccc2Cl)CC1`
result: 1.56

query: // returns reported inhibition for input `O=C(Nc1ccc2nc3n(c(=O)c2c1)CCCCC3)c1ccccn1`
result: 0.8

query: Bench note: what inhibition did `Cn1nnnc1SCC(=O)Nc1ccc(N2CCOCC2)cc1` show?
result: 0.97

query: What does the data say about its inhibition? Entry: `COc1ccc(O)c(-c2[nH]ncc2C(=O)c2ccccc2C)c1`
result: -0.045

query: Which inhibition is listed for `CCCCCn1c(=O)[nH]c2cc(C(=O)O)ccc2c1=O` ?
result: 1.91

query: Consider the molecule shown here: COC(=O)CSC1=C(C#N)C(c2ccc(C(C)C)cc2)CC(=O)N1 (stereo not drawn) What is its recorded inhibition?
result: 3.04

query: What value of inhibition has been reported for the following molecule? `CCC(CC)c1nnc(NC(=O)c2c(-c3ccccc3)noc2C)s1`
result: 0.27

query: inhibition lookup needed for COCCCN(C(=O)Cn1ncc2c(=O)oc3ccc(C)cc3c21)C(C)c1ccncc1 (stereo not drawn) , thanks.
result: 1.15

query: For COc1ccc(NC(=O)N(CCC(C)C)C(C)c2ccccn2)c(OC)c1 (stereo not drawn) , what is its reported inhibition?
result: 1.11

query: Fill in the blank: the reported inhibition of `Nc1nc(SCc2ccc(Cl)cc2)ns1` is ____.
result: 0.695

query: Would you kindly share the measured inhibition for `CCc1nccn1S(=O)(=O)c1ccc(OC)c(OC)c1` ?
result: 1.67

query: Value lookup for inhibition; key = `C=CCN(C(=O)CN1CCOCC1)c1nc(C)c(-c2ccccc2)s1`
result: -0.245

query: Endpoint output: inhibition of `CN(C)CCNC(=O)c1ccc(CS(=O)(=O)c2ccc(Br)cc2)o1` . Value?
result: 0.565

query: # input molecule: `COc1cccc(C(=O)Nc2cc(=O)n(C)c(=O)n2C)c1` ; wanted: its inhibition
result: 2.98

* * *

assay-remarks: OD615 S. cerevisiae growth inhibition, permissive medium, pilot counter-assay, permissive growth control for S. cerevisiae lifespan shortening project (AID 705)
setup-conditions: OD615, 24 h, at 10 µM, stronger effect = higher value
Reported growth inhibition values are given for each entry in this list.
The reply should contain only the number, in %.

query: Looking for the measured growth inhibition of `Cc1cccc(OCC(=O)Nc2ccc3c(c2)OCO3)c1C` , can you help?
result: -5.98

query: Data request, read-out growth inhibition, for `CN(C)c1nc2c(c(=O)[nH]c(=O)n2C)n1Cc1ccc(F)cc1`
result: -2.72

query: Which value of growth inhibition has been reported for `CCN(Cc1ccccc1)C(=O)Cn1cc2c(n1)CCCC2` in the records?
result: -5.23

query: Query: growth inhibition; subject: `Cn1nc(-c2ccc(Cl)cc2)c2cc(C(=O)N3CCCC3)sc21`
result: -8.92

query: Quick one: growth inhibition of N#CC1=C2SCN(c3ccc(F)cc3)CN2C(=O)CC1c1cccc(F)c1 (centres undefined) ?
result: 4.17

---
query: // query growth inhibition value for entry `O=C(NCCc1ccc(Cl)cc1)c1cnc2n(c1=O)CCS2`
result: -1.75

query: Looking for the measured growth inhibition of `CCOc1ccccc1N1CCN(S(=O)(=O)CC)CC1` , can you help?
result: -0.885

* * *

assay-remarks: viability gain of MRP-1-high H69AR cells under doxorubicin, pilot screen, MRP-1 activator project, CellTiter-Glo, duplicate (AID 807);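 note: compound pretreatment 18-22 h then 72 h combined with doxorubicin; 0% = doxorubicin alone and 100% = vehicle without doxorubicin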
setup-conditions: H69AR viability with doxorubicin, CellTiter-Glo luminescence; at 10 µM; stronger effect = higher value
measured-parameter: viability increase (%)
Give a bare numeral; the unit % is implied.

See these solved cases before continuing.
query: For `O=C(c1csc2c1CCCC2)N1CCCCC1` , what is its reported viability increase?
result: -1.17

query: Fill blank: measured viability increase of the compound O=C1CC(c2ccco2)CC2=C1C1c3ccccc3C(=O)N1c1ccccc1N2 (stereo unspecified) is ____.
result: 3.98

query: Fill blank: measured viability increase of the compound CCOC(=O)c1ccc(NC(=O)C(C)N2C(=O)c3ccccc3C2=O)cc1 (stereo unspecified) is ____.
result: 0.15

More entries:
query: I'd like to know its viability increase. The compound in question is `COc1ccccc1N=C(C)C1=C(O)CSC1=O`
result: -1.29

query: What value of measured viability increase is listed for COc1ccc(NC(=O)C2CCCN(S(=O)(=O)c3cccc4cccnc34)C2)c(OC)c1 (stereo unspecified) ?
result: -2.29

query: Fill blank: measured viability increase of the compound `Cc1c(Cl)cccc1NC(=O)CN1C(=O)CSc2ncccc21` is ____.
result: -1.13

query: Dear colleague, I am looking for the recorded viability increase of the following compound: CCCCS(=O)CC(COc1ccc(Cl)cc1)OC(=O)c1ccccc1 (stereo unspecified)
result: 3.23

query: Returns the measured viability increase for the input compound. Input: `c1ccc2[nH]c(-c3ccnc4ccccc34)nc2c1`
result: -4.45

query: // returns reported viability increase for input `CCOc1ccccc1NC(=O)C1CCN(S(=O)(=O)c2ccc(OC)c(OC)c2)CC1`
result: -2.46

query: Give the measured viability increase of `CC1CCN(CCCNC(=O)CN2CCN(Cc3ccc(Cl)cc3)C2=O)CC1` .
result: -0.83

query: If you can, please state the reported viability increase value of `NC(=O)CCc1c[nH]c2ccccc12` .
result: -3.35

* * *

Below: a set of entries, each annotated with reported viability.
assay-remarks: growth suppression of beta-catenin knockout HCT116, pilot screen, human colon tumor cells (AID 823);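 note: 0% = wells killed by 20 µM Hyamine and 100% = untreated DMSO cell wells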
setup-conditions: CellTiter-Glo, 60 h, at 10 µM, stronger effect = lower value
Records with an inconclusive call do not appear. The source made the active and inactive calls.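 The calls were made as follows: active = cell viability at or below a set limit in both duplicate runs, the limit being the all-compound median minus 4 SD (cut at about 23% in these data, passing the limit was not always enough); inconclusive = no clear call, values can overlap the other calls; inactive = the rest.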

query: Look at this compound and give its reported viability. `COc1ccc(C(=O)Nc2c(F)c(F)c(F)c(F)c2F)c(OC)c1`
result: 100% (inactive)

query: So what's the measured viability for this one? `O=C(CN(c1ccc(F)cc1)S(=O)(=O)c1ccc2c(c1)OCCO2)N1CCOCC1`
result: 107% (inactive)

query: Reported viability, compound `CCOc1ccc(OCC)c(S(=O)(=O)NCCCN2CCOCC2)c1` : ____
result: 99.8% (inactive)

query: Need viability, item `O=C(COC(=O)c1ccc(Br)o1)Nc1nc2ccccc2s1`
result: 90.5% (inactive)

query: State the recorded viability for this entry: CCC(C)NC(=O)CCS(=O)(=O)c1ccc2c(c1)n(C)c(=O)c(=O)n2C (stereo not drawn)
result: 103% (inactive)

***
query: Find the recorded viability belonging to NC(=O)NC1CCCc2c1[nH]c1ccc(Cl)cc21 (stereo not drawn) and report it.
result: 89.9% (inactive)

query: Requested read-out: viability. Entry: `O=C(Cn1ncc2c1-c1ccccc1OC2)N(Cc1ccco1)C1CCCCC1`
result: 78.5% (inactive)

* * *

assay-remarks: RAM signaling pathway blockade in yeast – S. cerevisiae, Pdr1DBD-CYC8 efflux-inhibited sensitized strain, primary screen (AID 1298);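 note: 0% = DMSO untreated cells without growth and 100% = 10 µM 1-NA-PP1 full growth; higher means more yeast growth rescued from 5-FOA killing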
setup-conditions: S. cerevisiae cbk1-as DSE1-URA3 strain, 5-FOA growth OD615, 2 d; at 50 µM; stronger effect = higher value
Activity calls are given as the source filed them.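 Rule for the calls: active = RAM network inhibition above 8.4% in each of two replicates, 3 SD over the compound average; inconclusive = above 8.4% inhibition in only one replicate; inactive = 8.4% inhibition or less in each replicate.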
Reported RAM network inhibition values for a set of compounds

query: Which RAM network inhibition value belongs to `Cc1ccc(-c2nc3cnccn3c2Nc2ccccc2)o1` ?
result: 1.9% (inactive)

query: Given CCC/C(=C1/C(=O)CC(C)(C)C(C(=O)OC)C1=O)N1CCCC1 (stereo unspecified) , state its recorded RAM network inhibition.
result: -2.05% (inactive)

* * *

assay-remarks: growth suppression of beta-catenin knockout HCT116, pilot screen, human colon tumor cells (AID 823);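 note: 0% = wells killed by 20 µM Hyamine and 100% = untreated DMSO cell wells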
setup-conditions: CellTiter-Glo, 60 h, at 10 µM, stronger effect = lower value
Results filed as inconclusive are left out.
measured-parameter: viability (%)
The answer is to be given in %; state only the numeric part.

Below, each entry is followed by its recorded viability result.
query: Which value of viability has been reported for O=C1CN(C(=O)COC(=O)C2CC(=O)N(Cc3ccco3)C2)c2ccccc2N1 (stereo unspecified) in the records?
result: 102

query: What value of measured viability is listed for `COC(=O)c1ccc2[nH]c(C)cc(=O)c2c1` ?
result: 99.8

query: Please report the recorded viability for `O=c1nc2scc(-c3ccccc3)n2c2ccccc12` .
result: 94.1

query: Could you share which viability value was measured for `c1ccc(N2CCN(c3ncnc4c3oc3ccccc34)CC2)cc1` ?
result: 96

query: What measured viability goes with `CC(=O)c1ccc(C(=O)Nc2ccc(N3CCOCC3)cc2)cc1` ?
result: 98.5

Now take the following compound into account.
query: Which viability reading was recorded for the compound `Cc1nc2cc(C(=O)O)ccc2n1-c1ccccc1` ?
result: 109
